The reported numbers originate from the FLAb antibody collection (doi:10.7554/elife.23156).

B1: scFv; the commonest letter at each place (parent)
chain 1: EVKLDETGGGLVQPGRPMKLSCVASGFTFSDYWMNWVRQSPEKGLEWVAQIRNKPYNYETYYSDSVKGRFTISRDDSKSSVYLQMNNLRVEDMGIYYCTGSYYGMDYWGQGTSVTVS
chain 2: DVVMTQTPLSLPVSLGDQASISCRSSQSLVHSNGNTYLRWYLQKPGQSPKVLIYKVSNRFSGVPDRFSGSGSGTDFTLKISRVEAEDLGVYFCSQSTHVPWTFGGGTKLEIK

# Variants of: B1
# assayExplanation: Kd (Tite-Seq)
# runConditions: with fluorescein; format: scFv 4-4-20, heavy + light
pKd: −log10 of the molar value.
Listed below: pKd values for each entry.

Completed entries (count: 8):
INSERT INTO assay_data (mutantdesignation, readoutvalue) VALUES
  ('chain 1 F29P W33G', '≤ 5.00'),
  ('chain 1 Y107E', 5.76),
  ('chain 1 M34L N35I', '≤ 5.00'),
  ('chain 1 G100Q W108N', '≤ 5.00'),
  ('chain 1 G100Y S101P', '≤ 5.00'),
  ('chain 1 S101H Y103N', '≤ 5.00'),
  ('chain 1 G104Y Y107H', '≤ 5.00'),
  ('chain 1 Y32R N35K', '≤ 5.00');

Task: Entry chain 1 F29I S30R D31E : reported pKd = ?
Result: 6.64

Task: Entry chain 1 W33N N35I : reported pKd = ?
Result: ≤ 5.00

Task: Entry chain 1 M34E N35H : reported pKd = ?
Result: 6.71

Task: Entry chain 1 T28G M34P N35T : reported pKd = ?
Result: ≤ 5.00

Task: Entry chain 1 T28Y N35E : reported pKd = ?
Result: ≤ 5.00
